Where do these numbers come from? They come from ChEMBL document CHEMBL3286359.

molecular target: Metabotropic glutamate receptor 3 (Rattus norvegicus) (UniProt P31422); assay: Inhibition of rat mGlu3 receptor transfected in HEK293 cells coexpressing mouse Galpha15 assessed as decrease in glutamate-induced calcium signaling at 3 uM by fluorescence plate reader analysis in presence of glutamate at EC87 concentration; assay type: functional, cell-based
Sequence (P31422 23-879 limits assumed): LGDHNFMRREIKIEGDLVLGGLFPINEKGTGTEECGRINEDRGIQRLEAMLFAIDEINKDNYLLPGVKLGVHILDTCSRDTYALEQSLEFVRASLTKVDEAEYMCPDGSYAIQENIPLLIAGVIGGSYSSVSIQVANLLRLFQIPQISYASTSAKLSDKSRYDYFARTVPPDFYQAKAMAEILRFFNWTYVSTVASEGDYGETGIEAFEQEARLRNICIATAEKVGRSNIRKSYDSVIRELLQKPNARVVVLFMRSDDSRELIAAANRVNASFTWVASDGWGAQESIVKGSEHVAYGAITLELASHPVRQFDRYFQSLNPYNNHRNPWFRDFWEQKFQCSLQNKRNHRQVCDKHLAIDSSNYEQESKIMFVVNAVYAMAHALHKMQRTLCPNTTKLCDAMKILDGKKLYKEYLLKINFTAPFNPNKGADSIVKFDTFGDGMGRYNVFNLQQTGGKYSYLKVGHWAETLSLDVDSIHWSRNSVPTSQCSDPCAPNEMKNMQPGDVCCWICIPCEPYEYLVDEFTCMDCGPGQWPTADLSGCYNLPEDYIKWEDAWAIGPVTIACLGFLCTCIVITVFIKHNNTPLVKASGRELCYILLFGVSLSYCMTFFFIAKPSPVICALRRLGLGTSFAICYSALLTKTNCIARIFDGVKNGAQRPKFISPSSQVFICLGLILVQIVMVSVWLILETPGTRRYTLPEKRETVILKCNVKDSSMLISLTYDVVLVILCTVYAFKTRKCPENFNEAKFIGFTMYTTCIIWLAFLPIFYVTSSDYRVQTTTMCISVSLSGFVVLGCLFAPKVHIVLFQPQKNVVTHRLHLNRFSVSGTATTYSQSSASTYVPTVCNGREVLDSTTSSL
testReadout: inhibition (%)
Give bare numbers, in %.

Examples with their reported inhibition follow.
COc1ccc(-c2ccc3c(=O)n(C)c4cc(-c5cccc(C)c5)nn4c3c2)cc1; 34
COc1ccc(-c2ccc3c(=O)n(C)c4cc(-c5cccc(F)c5)nn4c3c2)cc1; 2
Cn1c(=O)c2ccc(-c3cnc4ccccc4c3)cc2n2nc(-c3ccccc3)cc12; 33
O=c1c2ccc(-c3ccccc3)cc2n2nc(-c3ccccc3)cc2n1CCO; 3

Query :: Given the compound `Cn1c(=O)c2ccc(-c3ccc4cc[nH]c4c3)cc2n2nc(-c3ccccc3)cc12` , what is its reported inhibition?
Result :: 34
